target: ATX (Homo sapiens); test: ATX inhibition assay with FS-3 substrate; format: biochemical; parameters: conditioned serum-free medium (CCM) from MDA-MB-435 cells as the source of ATX; endogenous in cells; host or cells: MDA-MB-435 cells (about 10x concentrated serum-free conditioned medium); conditions: 10 μM compound; FS-3 hydrolysis normalized to vehicle control (low = strong inhibition); mean ± S.D.
MEASURED_PROPERTY: % Response at 10 μM (FS-3) (%)
Give the number; % is assumed, so skip it.

Report value only: % Response at 10 μM (FS-3), ATX (Homo sapiens), CCn1cc(C(=O)O)c(=O)c2cnc(N3CCN(C(=S)Nc4ccc(F)cc4)CC3)nc21 [Compound 23]
48.9

Report value only: % Response at 10 μM (FS-3), ATX (Homo sapiens), CCn1cc(C(=O)O)c(=O)c2cnc(N3CCN(C(=S)Nc4ccccc4I)CC3)nc21 [Compound 26]
68.4

Report value only: % Response at 10 μM (FS-3), ATX (Homo sapiens), CCn1cc(C(=O)O)c(=O)c2cnc(N3CCN(C(=S)Nc4ccc(-n5cccn5)cc4)CC3)nc21 [Compound 9]
68.6

---

biological target: ATX (Homo sapiens, UniProt Q13822); test: ATX inhibition assay with FS-3 substrate; type: biochemical; design: conditioned serum-free medium (CCM) from MDA-MB-435 cells as the source of ATX; endogenous in cells; host or cells: MDA-MB-435 cells (about 10x concentrated serum-free conditioned medium); details: FS-3 substrate
Consider the following compounds; for each one, report its pIC50.
pIC50 is defined as minus the log10 of a concentration measured in mol/L.

Fill in pIC50 for record CCn1cc(C(=O)O)c(=O)c2cnc(N3CCN(C(=S)Nc4ccc(C)cc4)CC3)nc21
4.79

Fill in pIC50 for record CCn1cc(C(=O)O)c(=O)c2cnc(N3CCN(C(=S)Nc4cc(C)cc(C)c4)CC3)nc21
5.05

Fill in pIC50 for record CCn1cc(C(=O)O)c(=O)c2cnc(N3CCN(C(=S)Nc4cccc(C)c4)CC3)nc21
4.87

---

biological target: ATX (Homo sapiens); test: biochemical; conditions: Ki
MEASURED_PROPERTY: Ki

Fill in Ki for record CCn1cc(C(=O)O)c(=O)c2cnc(N3CCN(C(=S)Nc4cccc(C)c4)CC3)nc21 [Compound 13]
1.7 to 13.5 µM

Fill in Ki for record CCn1cc(C(=O)O)c(=O)c2cnc(N3CCN(C(=S)Nc4ccc(Cl)cc4)CC3)nc21 [Compound 28]
1.7 to 13.5 µM

Fill in Ki for record CCn1cc(C(=O)O)c(=O)c2cnc(N3CCN(C(=S)Nc4cc(C)cc(C)c4)CC3)nc21 [Compound 22]
1.7 to 13.5 µM
